Source listed as ChEMBL document CHEMBL1131100.

Reported pIC50 for target or system Nitric oxide synthase 1 (Homo sapiens, UniProt P29475), by entry.
Scale explanation: pIC50 corresponds to minus log10 of a concentration expressed in moles per litre.

compound: CC1CN=C(N)C1 (stereo not drawn)
pIC50: 5.33

compound: CCCCCC1N=C(N)CC1C(F)(F)F (stereo in doubt; 14)
pIC50: 5.26

compound: CCCCCC1N=C(N)CC1C (stereo in doubt; 21)
pIC50: 4.69

Exercise: Recorded pIC50 of CCCCCC1N=C(N)CC1C(F)(F)F (stereo in doubt; 22) , please.
Key: 5.60

Exercise: Now the compound CCCCCC1N=C(N)CC1C(F)(F)F (stereo in doubt; 23)
Key: 4.34

Exercise: What would you report for CCC1N=C(N)CC1C (stereo not drawn) ?
Key: 6.77

Exercise: Another compound to check: CC1CC(N)=NC1Cc1ccccc1 (stereo in doubt; 16)
Key: 4.95

Exercise: // query: CCCCC1N=C(N)CC1C (stereo not drawn)
Key: 6.07

----------
# Nitric oxide synthase 3 (Homo sapiens): IC50 values follow
# Sequence (P29474 whole entry): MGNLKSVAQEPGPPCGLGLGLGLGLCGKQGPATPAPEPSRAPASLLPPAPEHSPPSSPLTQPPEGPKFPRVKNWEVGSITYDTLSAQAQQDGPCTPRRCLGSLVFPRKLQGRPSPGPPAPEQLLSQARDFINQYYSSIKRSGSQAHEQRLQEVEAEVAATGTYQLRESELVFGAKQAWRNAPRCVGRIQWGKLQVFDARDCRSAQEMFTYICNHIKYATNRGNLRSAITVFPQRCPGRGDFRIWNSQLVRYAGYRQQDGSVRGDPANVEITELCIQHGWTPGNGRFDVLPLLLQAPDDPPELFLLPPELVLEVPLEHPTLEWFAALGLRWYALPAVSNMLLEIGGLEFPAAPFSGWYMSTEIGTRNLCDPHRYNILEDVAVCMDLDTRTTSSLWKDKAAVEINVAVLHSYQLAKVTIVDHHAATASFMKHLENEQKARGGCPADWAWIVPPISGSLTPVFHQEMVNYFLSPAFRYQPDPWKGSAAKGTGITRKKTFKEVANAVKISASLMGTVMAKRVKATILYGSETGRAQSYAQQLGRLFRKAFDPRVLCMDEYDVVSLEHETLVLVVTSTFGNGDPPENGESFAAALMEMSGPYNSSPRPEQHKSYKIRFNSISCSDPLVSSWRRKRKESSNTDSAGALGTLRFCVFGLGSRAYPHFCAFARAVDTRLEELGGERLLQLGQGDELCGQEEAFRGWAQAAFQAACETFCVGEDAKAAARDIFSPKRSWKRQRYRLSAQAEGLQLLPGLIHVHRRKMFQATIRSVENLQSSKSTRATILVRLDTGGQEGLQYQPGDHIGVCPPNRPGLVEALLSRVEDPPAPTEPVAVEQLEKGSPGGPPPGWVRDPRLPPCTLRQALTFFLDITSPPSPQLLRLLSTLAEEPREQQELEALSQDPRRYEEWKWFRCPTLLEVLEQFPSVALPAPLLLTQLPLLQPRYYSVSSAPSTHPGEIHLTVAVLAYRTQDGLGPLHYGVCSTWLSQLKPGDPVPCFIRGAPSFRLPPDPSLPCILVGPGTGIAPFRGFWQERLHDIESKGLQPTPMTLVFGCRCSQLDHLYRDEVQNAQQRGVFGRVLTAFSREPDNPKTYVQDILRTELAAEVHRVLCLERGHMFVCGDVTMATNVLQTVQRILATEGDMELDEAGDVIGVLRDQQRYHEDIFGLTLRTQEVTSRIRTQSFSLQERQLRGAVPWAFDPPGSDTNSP
Return type: number; implicit unit µM.

# annotated cases, reported IC50 shown
molecule: CCCCCC1N=C(N)CC1C(F)(F)F (stereo in doubt; 22)
unit_descriptor: µM
IC50: 212

molecule: CCCCCC1N=C(N)CC1C(F)(F)F (stereo in doubt; 13)
unit_descriptor: µM
IC50: 336

Exercise: What IC50 value was documented for this molecule, NC1=NC(Cc2ccccc2)C(C(F)(F)F)C1 (stereo in doubt; 18) ?
Key: 2920

Exercise: Okay, and CCCCCC1N=C(N)CC1C(F)(F)F (stereo in doubt; 14) ?
Key: 392

Exercise: CCC1CN=C(N)C1 (stereo not drawn) , same question.
Key: 29.8

Exercise: Query CCC1N=C(N)CC1C (stereo not drawn) next
Key: 1.6

Exercise: Same read-out for NC1=NC(Cc2ccccc2)C(C(F)(F)F)C1 (stereo in doubt; 17) ?
Key: 1010

Exercise: Now the same for CCCCCC1N=C(N)CC1C (stereo in doubt; 9)
Key: 47.5

----------
# assay_target: Nitric oxide synthase, inducible (Homo sapiens, UniProt P35228)
# Sequence (P35228 whole entry): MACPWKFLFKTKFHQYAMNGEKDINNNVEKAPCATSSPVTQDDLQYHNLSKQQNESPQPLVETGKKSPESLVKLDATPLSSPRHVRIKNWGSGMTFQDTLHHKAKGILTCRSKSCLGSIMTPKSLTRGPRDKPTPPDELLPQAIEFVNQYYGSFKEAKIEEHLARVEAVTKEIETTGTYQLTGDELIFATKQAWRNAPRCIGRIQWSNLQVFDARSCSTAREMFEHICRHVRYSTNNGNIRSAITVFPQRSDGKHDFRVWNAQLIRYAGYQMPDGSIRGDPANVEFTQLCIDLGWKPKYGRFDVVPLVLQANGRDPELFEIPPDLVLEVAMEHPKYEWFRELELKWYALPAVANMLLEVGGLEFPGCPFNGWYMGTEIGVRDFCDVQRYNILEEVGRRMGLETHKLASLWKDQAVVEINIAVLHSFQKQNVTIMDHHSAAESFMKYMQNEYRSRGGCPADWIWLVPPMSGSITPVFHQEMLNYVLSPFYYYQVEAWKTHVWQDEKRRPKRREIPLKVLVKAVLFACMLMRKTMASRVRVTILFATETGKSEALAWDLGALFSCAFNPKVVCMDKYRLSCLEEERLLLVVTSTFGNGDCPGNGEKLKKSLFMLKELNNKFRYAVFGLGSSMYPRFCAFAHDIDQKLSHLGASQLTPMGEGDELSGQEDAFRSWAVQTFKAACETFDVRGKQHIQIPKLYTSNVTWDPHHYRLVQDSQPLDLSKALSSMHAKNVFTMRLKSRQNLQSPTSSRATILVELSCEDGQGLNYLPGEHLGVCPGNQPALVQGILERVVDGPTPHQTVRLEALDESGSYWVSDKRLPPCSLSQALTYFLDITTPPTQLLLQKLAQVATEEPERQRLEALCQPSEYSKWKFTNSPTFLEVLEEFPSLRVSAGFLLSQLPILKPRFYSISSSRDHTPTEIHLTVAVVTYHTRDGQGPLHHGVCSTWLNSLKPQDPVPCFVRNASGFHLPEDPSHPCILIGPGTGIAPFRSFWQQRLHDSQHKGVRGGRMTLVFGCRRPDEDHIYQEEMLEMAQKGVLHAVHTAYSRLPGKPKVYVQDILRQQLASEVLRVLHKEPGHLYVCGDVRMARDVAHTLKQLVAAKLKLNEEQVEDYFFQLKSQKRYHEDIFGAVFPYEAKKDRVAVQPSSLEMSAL
Listed next: entries and their corresponding IC50.
Response body: numeric value in nM, unit text excluded.

Some molecules with recorded IC50:
molecule: CC1CN=C(N)C1 (centres undefined)
unit_descriptor: nM
IC50: 1400
--
molecule: CCCCCC1N=C(N)CC1C(F)(F)F (stereo in doubt; 14)
unit_descriptor: nM
IC50: 810
--
molecule: CCCCCC1N=C(N)CC1C(F)(F)F (stereo in doubt; 23)
unit_descriptor: nM
IC50: 7500

Moving on to the next molecule.
Exercise: Look up IC50 for this molecule: CCC1N=C(N)CC1C (centres undefined)
Key: 170
